tested on: Escherichia coli; test: Antibacterial activity against Escherichia coli NCIM 2065 at 100 ug/ml after 24 hrs by agar disc diffusion method; format: functional; conditions: NCIM 2065, 24 h, read-out: IZ
Param threshold (10 mm) applies to zone of inhibition at 100 µg/mL; output true (1) when value >= threshold, false (0) when value < threshold.

[in] Does the reported zone of inhibition at 100 µg/mL for COc1cc(/C=N/Nc2cc(N/N=C/c3cc(OC)c(OC)c(OC)c3)on2)cc(OC)c1OC fall at or above the 10 mm mark?
[out] true (1)

[in] Does the reported zone of inhibition at 100 µg/mL for C(=N\Nc1cc(N/N=C/c2ccccc2)[nH]n1)/c1ccccc1 fall at or above the 10 mm mark?
[out] false (0)

[in] Does the reported zone of inhibition at 100 µg/mL for Oc1ccc(/C=N/Nc2cc(N/N=C/c3ccc(O)cc3)[nH]n2)cc1 fall at or above the 10 mm mark?
[out] true (1)

[in] Does the reported zone of inhibition at 100 µg/mL for COc1ccc(/C=N/Nc2cc(N/N=C/c3ccc(OC)c(OC)c3)[nH]n2)cc1OC fall at or above the 10 mm mark?
[out] true (1)

[in] Does the reported zone of inhibition at 100 µg/mL for COc1ccc(-c2nnc(Cc3nnc(-c4ccc(OC)cc4)o3)o2)cc1 fall at or above the 10 mm mark?
[out] false (0)

[in] Does the reported zone of inhibition at 100 µg/mL for COc1ccc(/C=N/Nc2cc(N/N=C/c3ccc(OC)cc3)[nH]n2)cc1 fall at or above the 10 mm mark?
[out] true (1)

[in] Does the reported zone of inhibition at 100 µg/mL for Oc1ccccc1-c1nnc(Cc2nnc(-c3ccccc3O)o2)o1 fall at or above the 10 mm mark?
[out] false (0)

[in] Does the reported zone of inhibition at 100 µg/mL for c1ccc(-c2nnc(Cc3nnc(-c4ccccc4)o3)o2)cc1 fall at or above the 10 mm mark?
[out] false (0)

[in] Does the reported zone of inhibition at 100 µg/mL for O=[N+]([O-])c1ccc(/C=N/Nc2cc(N/N=C/c3ccc([N+](=O)[O-])cc3)[nH]n2)cc1 fall at or above the 10 mm mark?
[out] true (1)

[in] Does the reported zone of inhibition at 100 µg/mL for Clc1ccc(/C=N/Nc2cc(N/N=C/c3ccc(Cl)cc3)[nH]n2)cc1 fall at or above the 10 mm mark?
[out] false (0)

[in] Does the reported zone of inhibition at 100 µg/mL for CN(C)c1ccc(/C=N/Nc2cc(N/N=C/c3ccc(N(C)C)cc3)[nH]n2)cc1 fall at or above the 10 mm mark?
[out] false (0)

[in] Does the reported zone of inhibition at 100 µg/mL for Clc1ccc(/C=N/Nc2cc(N/N=C/c3ccc(Cl)cc3)on2)cc1 fall at or above the 10 mm mark?
[out] false (0)

[in] Does the reported zone of inhibition at 100 µg/mL for Oc1ccc(-c2nnc(Cc3nnc(-c4ccc(O)cc4)o3)o2)cc1 fall at or above the 10 mm mark?
[out] false (0)

----------
assay: Anti-lipid peroxidation activity ferric chloride-induced lipid peroxidation using egg yolk homogenate at 40 ug/ml by TBARS assay; assay type: physicochemical; details: tissue homogenate
Param threshold (50%) applies to Activity; output Condition met when value >= threshold, Condition not met when value < threshold.

[in] Does the reported Activity for c1ccc(-c2nnc(Cc3nnc(-c4ccccc4)o3)o2)cc1 fall at or above the 50% mark?
[out] Condition not met

[in] Does the reported Activity for COc1ccc(-c2nnc(Cc3nnc(-c4ccc(OC)cc4)o3)o2)cc1 fall at or above the 50% mark?
[out] Condition not met

[in] Does the reported Activity for CN(C)c1ccc(-c2nnc(Cc3nnc(-c4ccc(N(C)C)cc4)o3)o2)cc1 fall at or above the 50% mark?
[out] Condition not met

[in] Does the reported Activity for CN(C)c1ccc(/C=N/Nc2cc(N/N=C/c3ccc(N(C)C)cc3)on2)cc1 fall at or above the 50% mark?
[out] Condition met

[in] Does the reported Activity for COc1cc(-c2nnc(Cc3nnc(-c4cc(OC)c(OC)c(OC)c4)o3)o2)cc(OC)c1OC fall at or above the 50% mark?
[out] Condition not met

[in] Does the reported Activity for COc1cc(/C=N/Nc2cc(N/N=C/c3cc(OC)c(OC)c(OC)c3)on2)cc(OC)c1OC fall at or above the 50% mark?
[out] Condition not met

[in] Does the reported Activity for COc1ccc(/C=N/Nc2cc(N/N=C/c3ccc(OC)cc3)[nH]n2)cc1 fall at or above the 50% mark?
[out] Condition not met

[in] Does the reported Activity for Clc1ccc(-c2nnc(Cc3nnc(-c4ccc(Cl)cc4)o3)o2)cc1 fall at or above the 50% mark?
[out] Condition not met

[in] Does the reported Activity for Oc1ccc(/C=N/Nc2cc(N/N=C/c3ccc(O)cc3)[nH]n2)cc1 fall at or above the 50% mark?
[out] Condition met

[in] Does the reported Activity for C(=N\Nc1cc(N/N=C/c2ccccc2)[nH]n1)/c1ccccc1 fall at or above the 50% mark?
[out] Condition not met

[in] Does the reported Activity for Oc1ccc(-c2nnc(Cc3nnc(-c4ccc(O)cc4)o3)o2)cc1 fall at or above the 50% mark?
[out] Condition met

Origin of the recorded values: ChEMBL document CHEMBL1777684
